Provenance of the data: paper PMC7531004

Experiment: H+/Na+ transport assay of purified peptides
Conditions: read-out: EC50, H+/Na+ transport assay; 3rd experiment
Where a SMILES comes first, the peptide text is derived from it. [ ]: non-standard residue; d: D form. The star is where a group is joined. NHCH2CH2OH = OCCN*; For = O=C*
readout_name: EC50

compound	result
CC(C)C[C@@H](NC(=O)[C@H](C)NC(=O)CNC(=O)[C@@H](NC=O)C(C)C)C(=O)N[C@@H](C)C(=O)N[C@@H](C(=O)N[C@H](C(=O)N[C@@H](C(=O)N[C@@H](Cc1c[nH]c2ccccc12)C(=O)N[C@@H](C(=O)N[C@@H](Cc1c[nH]c2ccccc12)C(=O)N[C@H](CC(C)C)C(=O)N[C@@H](Cc1c[nH]c2ccccc12)C(=O)N[C@@H](C(=O)N[C@@H](Cc1c[nH]c2ccccc12)C(=O)NCCO)C(C)C)C(C)C)C(C)C)C(C)C)C(C)C [B04] (For-VGA[dL]A[dV]V[dV]W[dV]W[dL]W[dV]W-NHCH2CH2OH)	4.18 nM
